The origin of these recorded values is patent US5244891A.

test: Elevated temperature storage stability in dry form (potency loss or gain by HPLC); assay type: physicochemical; conditions: dry solid, 45 Deg. C., 4 weeks, dry container; + = potency gain; read-out: PERCENT LOSS (potency)
measurement.kind: degraded at 672 h (%)

compound="CO/N=C(\\C(=O)NC1C(=O)N2C(C(=O)[O-])=C(C[N+]3(C)CCCC3)CS[C@H]12)c1csc(N)n1 (stereo partly shown) [Zwitterion, reference compound]" measurement_kind="degraded at 672 h" unit_text=% experimental_result=71

---

Reported PERCENT LOSS (potency) is given for each of the following compounds.
assay: Elevated temperature storage stability in dry form (potency loss or gain by HPLC); type: physicochemical; settings: 56 Deg. C., 1 week, dry container; + = potency gain; 10080 min
Where a name gives a salt, the structure may show the parent alone.
measurement.kind: PERCENT LOSS (potency) (%)

compound="CO/N=C(\\C(=O)NC1C(=O)N2C(C(=O)[O-])=C(C[N+]3(C)CCCC3)CSC12)c1csc(N)n1 (stereo not shown) [(H3 PO4)2 Salt]" measurement_kind="PERCENT LOSS (potency)" experimental_result=2.7
compound="CO/N=C(\\C(=O)NC1C(=O)N2C(C(=O)[O-])=C(C[N+]3(C)CCCC3)CSC12)c1csc(N)n1 (stereo not shown) [(HNO3)2 Salt]" measurement_kind="PERCENT LOSS (potency)" experimental_result=3.7
compound="CO/N=C(\\C(=O)NC1C(=O)N2C(C(=O)[O-])=C(C[N+]3(C)CCCC3)CSC12)c1csc(N)n1 (stereo not shown) [HCl Salt]" measurement_kind="PERCENT LOSS (potency)" experimental_result=6.4
compound="CO/N=C(\\C(=O)NC1C(=O)N2C(C(=O)[O-])=C(C[N+]3(C)CCCC3)CSC12)c1csc(N)n1 (stereo not shown) [(HCl)2 Salt]" measurement_kind="PERCENT LOSS (potency)" experimental_result=0
